Reported melting point by item:

Known melting point results, listed for orientation:
CCOC(=O)C1=C(C)NC(C)=C(C(=O)OCC)C1c1ccccc1/C=C/C(=O)OC(CC(C)C)CC(C)C	49 to 52 °C
Fc1ccc(-c2cc(CCOCc3ccccc3)cc(OCCCCCl)c2)cc1	48 to 49 °C
C#CC[C@@H](NCCCNC(=O)OCc1ccccc1)c1nc2cc(Cl)ccc2c(=O)n1Nc1ccccc1	63 to 65 °C
CCCCCCCCCCCN(O)C(=O)N(C)C	54 to 55 °C
COc1ccc2c(c1)C1=C(SCC3(CCN(CC(O)COc4ccc(F)cc4)CC3)O1)C(=O)C2=O (stereo not given)	80 to 81 °C

Query: Consider the compound O=C1NC(=O)c2ccc(Br)cc2/C1=C/N1CCN(CCN2CCOCC2)CC1 and give its measured melting point.
Response: 156 °C

Query: What do we get for O=C(CCCN1CCOCC1)c1ccc2c(c1)Cc1cc(C(=O)CCCN3CCOCC3)ccc1-2 ?
Response: 166 to 168 °C

Query: What do we get for O=P(O)(O)CCCCCCC(F)(F)C(F)(F)C(F)(F)C(F)(F)F ?
Response: 107 to 108 °C

Query: What do we get for O=C(NC(=O)c1ccccc1)NC1CCN(CC(=O)C2COc3ccccc3O2)CC1 (stereo not given) ?
Response: 160 to 161 °C

Query: What do we get for CC(CCCC(C)(C)O)C1CCC2C3=CC=C4CCCC(O)C4(C)C3CCC21C (stereo not given) ?
Response: 151 to 152 °C

Query: What do we get for Cc1ccc(CN(CCCC(N)=O)Cc2ccc(C)cc2)cc1 ?
Response: 85 to 86 °C

Query: What do we get for O=C(O)C1Cc2c(cccc2-c2ccccc2)CN1C(=O)C(c1ccccc1)c1ccccc1 (stereo not given) ?
Response: 216 to 221 °C

Query: What do we get for ClCCOc1ccc(Cl)c2[nH]cc(Cl)c12 ?
Response: 106 to 108 °C

Query: What do we get for O=C(O)CC(NC(=O)c1ccc2c(c1)CCC(=NNC1=NCCN1)C1=C2CCC1)c1cccnc1 (stereo not given) ?
Response: 126 to 128 °C

Query: What do we get for COc1cc(C)c(N)c(C)c1C ?
Response: 70 to 72 °C

Query: What do we get for CCOc1cc([N+](=O)[O-])ccc1C(O)c1cc(C)ccn1 (stereo not given) ?
Response: 114 to 115 °C

Query: What do we get for CCOC(=O)C(=Cc1cscc1OC)N=[N+]=[N-] ?
Response: 88 to 90 °C

Query: What do we get for COc1ccc(C=C2SC(=S)N(CC(=O)O)C2=O)cc1OCc1ccccc1 ?
Response: 234 to 239 °C

Query: What do we get for COC(=O)c1ccc(OCCCc2ccccc2)cc1 ?
Response: 61 to 61.5 °C

Query: What do we get for COC(=O)c1c(C(=O)OC)c(-c2ccccc2)n2c1Cc1ccccc1-2 ?
Response: 149 to 151 °C

----------
Reported melting point by item:

COc1ccc(C(=CC(=O)N2CCOCC2)c2ccc(NC(=O)NS(=O)(=O)c3ccc(C)cc3)cc2)cc1OC	220 to 225 °C
CCN(CC)CCOc1ccc2c(c1)cc(OC)c1cc(OCCN(CC)CC)ccc12	63 to 65 °C

Query: Consider the molecule CCOC(=O)CN1C(=O)COc2cc([N+](=O)[O-])ccc21 and give its measured melting point.
Response: 120 to 122 °C

Query: What do we get for CCN(c1cccc2cc(C(=O)NCCSC(c3ccccc3)(c3ccccc3)c3ccccc3)[nH]c12)S(=O)(=O)c1cccs1 ?
Response: 58 to 61 °C

Query: What do we get for CCOC(=O)NCc1cc(-c2ccc(Cl)cc2)no1 ?
Response: 137 °C
